Experimental protocol: Metabolic stability in rat liver microsomes assessed as compound remaining at 1 uM after 30 mins in presence of NADPH regeneration system by LC-MS/MS analysis
Assay type: ADME, Microsome
Experimental conditions: read-out: Stability
Quantity name: remaining at 0.5 h, 1 µM (%)
Express the result in % but write the number alone.

Data request: Entry OCCC/C(=C(\c1ccc(Br)cc1)c1ccc(N2CCNCC2)cc1)c1ccccc1 : reported remaining at 0.5 h, 1 µM = ?
Data returned: 84.7

###

Experimental protocol: Metabolic stability in human liver microsomes assessed as compound remaining at 1 uM after 30 mins in presence of NADPH regeneration system by LC-MS/MS analysis
Format: ADME, Microsome
Experimental conditions: read-out: Stability
Quantity name: remaining at 0.5 h, 1 µM (%)
Express the result in % but write the number alone.

Reference set, count: 2
• Cc1ccc(/C(=C(\CCCO)c2ccccc2)c2ccc(N3CCN(C)CC3)cc2)cc1.Cl.Cl = 79.2
• Cc1ccc(/C(=C(\CCCO)c2ccccc2)c2ccc(N3CCN(C(C)C)CC3)cc2)cc1.Cl.Cl = 54.2

Next compound, please.
Data request: Entry OCCC/C(=C(\c1ccc(Br)cc1)c1ccc(N2CCNCC2)cc1)c1ccccc1 : reported remaining at 0.5 h, 1 µM = ?
Data returned: 65.1
